- procedure-summary: yeast display, Sf9 membrane polyspecificity reagent, FACS + sequencing; frameworks hold sequencing errors

| construct-sequence | polyreactivity (PSR sort gate) |
| --- | --- |
| QVQLVESGGGLVQAGGSLRLSCAASGSTFVDNAMGWYRQAPGKERELVAAISSSGGTTYYADSVKGRFTISRDNAKNTVYLQMNSLKPEDTAVYYCAARRRSGTYWRSANDYWGQGTQVTVSS | high polyreactivity |
| QVQLVESGGGLVQAGGSLRLSCAASGSILSRYAMGWYRQAPGKERELVAAISSRGGSTYYADSVKGRFTISRDNAKNTVYLQMNSLKPEDTAVYYCAADPVGEVRVYARGYSWGQGTQVTVSS | high polyreactivity |

* * *

- procedure-summary: yeast display, Sf9 membrane polyspecificity reagent, FACS + sequencing; frameworks hold sequencing errors
property: polyreactivity (PSR sort gate)

| construct-sequence | polyreactivity (PSR sort gate) |
| --- | --- |
| QVQLVESGGGLVQAGGSLRLSCAASGIIFGSNVMGWYREAPGIERELVAAINYGGGSTYYADSVKGRFTISRDNAKKTVYLQMNSLKPEDTAVYYCAARGSRDYRYDYWGQGTQVTVSS | low polyreactivity |
| QGQLVESGGGLVQAGGSLRLSCAASGSTFVYYARGWYRQAPGKEREMVAAIRYSGASTYYADSVKGRFTISRDNAKNTVYLQMNSLKPEDTAVYYCAAQPTTRRVPRFSSRARHYYWGQGTQVTVSS | high polyreactivity |
| QVQLVESGGGLVHAGGSLRLSCAASGSTFWANAMGWYRPPPGKERELVAAITSTGITYYADSVKGRFTISRDNAKNTVYLQMNSLKPEDTAVYYCAADGFRYSVYLIRNPMDYWGQGTQVTVSS | low polyreactivity |
| QVQLVESAGGLVQAGGSLRLSCAASGYIFQYYAMGWYRQAPGKERELVAAITSGGSTYYADSVKGRFTISRDNAKNTVYLQMNSLKPEDTAVYYCAAHLLHYRGDYWGQGTQVTVSS | high polyreactivity |
| QVQLVESGGGLVQAGGSLRLSCAASGFTFYENAMGWYRQAPGKERELVATISYSGGTTYYADSVKGRFTISRDNAKNTVYLQMNSLKPEDTAVYYCNADYFYYGFPDDYWGQGTQVTVSS | low polyreactivity |

Note: attention shifts to another entry.
Give the value of polyreactivity (PSR sort gate) reported for the following: QVQLVESGGGLVQAGGSLRLSCAASGRTFPRNAMGWYRQAPGKERELVAAISYGGGRTYYADSVKGRFTISRDNAKNTVYLQMNSLKPEDTAVYYCATVRRTDYPLGMDYWGQGTQVTVSS
high polyreactivity

* * *

- procedure-summary: yeast display, Sf9 membrane polyspecificity reagent, FACS + sequencing; frameworks hold sequencing errors
property: polyreactivity (PSR sort gate)

| construct-sequence | property | result-value |
| --- | --- | --- |
| QVQLVESGGGLVQAGGSLRISCAASGSIFTPNAMGWYRQAPGKERELVAAISSSSDRTYYADSVKGRFTISRDNAKNTVYLQMNSLKPEDTAVYYCNAYYRYGIQFDYWGQGTQVTVSS | polyreactivity (PSR sort gate) | high polyreactivity |
| QVQLVESGGGLVQAGCSLRLSCAASGFILTYYLMGWYRQAPGKERELVAAILSGGNTYYADSVKGRFTISRDNAQNTVYLQMNCLKPEDTAVYYFNARPRWSYGLDYWGQGTQVTVSS | polyreactivity (PSR sort gate) | high polyreactivity |
| QVQLVESGGGLVQAGGSLRLSCAASGRIFGTYAMGWYRQAPGKERELVAAISFRGGSTYYADTVNGRFTISRDNAKNTVYLQMNCLKPEDTAVYYCNARKRYSTDPGDYWGQGTQVTVSS | polyreactivity (PSR sort gate) | high polyreactivity |
| QVQLVESGGGLVQAGGSLRLSCAASGRIFKINAMGWYRQAPGKERELVAGISGSGSDTYYSDSVKGRFTISRDNAKNTVYLQMNSLKPEDTAVYYCAAVAYDWALFYYWGQGTQVTVSS | polyreactivity (PSR sort gate) | low polyreactivity |
| QVQLVESGGGLVQAGGSLRLSCAASGRTLQQYVMGWYRQAPGQERELVAAITRGGRTNYADSVKGRFTISRDNAKNTVYLQMNSLNPEDTAVYYCNTRYPSRLVAWLDYWGQGTQVTVSS | polyreactivity (PSR sort gate) | low polyreactivity |
| QVHLVESGGGLVQAGGSLRLSCAASGSIFTYYAMGWYRQAPGKERELVAAISSDGSTTYADSVKGRFTISRDNAKNTVYLQMNSLKPEDTAVYYCAASSYNGHGYWGQGTQVTVSS | polyreactivity (PSR sort gate) | low polyreactivity |
| QVQLVESGGGLVQAGGSLRLSCAASGRNFGTNAMGWYRQAPGKERELVASIDLSADSTYYADSVKGRFTISRDNAKNTVYLQMNSLKPEDTAVYYCNKDGYPWPPNLDYWGQGTQVTVSS | polyreactivity (PSR sort gate) | low polyreactivity |
| QVQLVESGGGLFQAGGRLRLSCAPSGFNFGGYVMGWYRQAPGKDRELVAAISSSGGITHYADSVKGRFTISRDNANNTVYLQMNSLKPEDTEVYYCNALYRKRYYWGQGTQVTVSS | polyreactivity (PSR sort gate) | high polyreactivity |

Give the value of polyreactivity (PSR sort gate) reported for the following: QVQLVESGGGLVQAGGSLRLSCAASGRTFALYAMGWYRQAPGTERELVASISWRGGSTYYADSVKGRFTISRDNAKNTVYLQMNSLKPEDTAVYYCAADTWSYGPLNYRLEYWGQGTQVTVSS
low polyreactivity

Give the value of polyreactivity (PSR sort gate) reported for the following: QVQLVESGGGLVQAGGSLRLSCAASGFTSGNYAMGWYRQAPGKERELVAAIDSDGSTYYADSVKGRFTISRDNAKNTVYLQMKSLKPEDTAVYYCNKDIKSATDSYHYEDDYWGQGTQVTVSS
low polyreactivity

Give the value of polyreactivity (PSR sort gate) reported for the following: QVQLVESGGGLVQAGGSLRLSCAASGSTFEANAMGWYRQAPGNERELVAVITWTGGSTYYADSVKGRFTISRDNAKNTVYLQMNSLKPEDTAVYYCAADGVVPGRFFWPAHEYDYWGQGTQVTVSS
low polyreactivity

Source: the nanobody polyreactivity screen of Harvey et al. (2022)
